System: VISA ATCC 700699
testName: MIC, agar dilution, VISA ATCC 700699
Format: cell-based
conditionDescription: Staphylococcus aureus; VISA ATCC 700699; read-out: MIC
Measured MIC, listed per entry for reference.
The figure you give is taken to be in µg/mL; do not add the unit.

I have this compound here, CCCc1cc2c3ccc(OC)c(O)c3c[n+]3ccc4cc5c(c1c4c23)OCO5 [15b] , and I need its recorded MIC.
2

I have this compound here, COc1ccc2c(c[n+]3ccc4cc5c(c6c(Cc7ccc(OC(F)(F)F)cc7)cc2c3c46)OCO5)c1O [13l] , and I need its recorded MIC.
32

I have this compound here, COc1ccc2c(c[n+]3ccc4cc5c(c6c(Cc7ccc(C(C)(C)C)cc7)cc2c3c46)OCO5)c1O [13k] , and I need its recorded MIC.
32

I have this compound here, COc1ccc2c(c[n+]3ccc4cc5c(c6c(Cc7ccc(Cl)cc7)cc2c3c46)OCO5)c1O [13e] , and I need its recorded MIC.
8
